The following molecules have recorded pIC50 on human JAK1 (aa 850-1154) (Homo sapiens).
Sequence (P23458 850-1154): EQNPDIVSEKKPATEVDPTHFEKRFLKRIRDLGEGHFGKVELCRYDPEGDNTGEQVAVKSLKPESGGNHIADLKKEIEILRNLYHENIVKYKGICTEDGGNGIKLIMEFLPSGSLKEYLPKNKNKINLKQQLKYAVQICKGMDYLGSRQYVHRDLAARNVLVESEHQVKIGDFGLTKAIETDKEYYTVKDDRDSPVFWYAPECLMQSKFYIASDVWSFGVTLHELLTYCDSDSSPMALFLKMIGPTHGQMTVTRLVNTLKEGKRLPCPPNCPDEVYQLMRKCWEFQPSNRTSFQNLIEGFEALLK
pIC50: −log10 of the molar value.

Take a look at these entries with their results.
- O=C(O)C[C@H](Cc1ccccc1)C(=O)Nc1cc(Nc2cnccn2)nc(-c2ccnc(N3CCNCC3)c2)c1: < 6.00
- O=C(Nc1cc(Nc2cnccn2)nc(-c2ccnc(N3CCNCC3)c2)c1)c1cccnc1: < 6.00

Please turn your attention to the following entry.
## Task // lookup pIC50 | system=human JAK1 (aa 850-1154) (Homo sapiens) | key= COc1cccc(CC(=O)Nc2cc(Nc3cnccn3)nc(-c3ccnc(N4CCNCC4)c3)c2)c1
## Result < 6.00

###

# systemTested: JAK2 (aa 826-1132) (Homo sapiens, UniProt O60674)
# Sequence (O60674 826-1132): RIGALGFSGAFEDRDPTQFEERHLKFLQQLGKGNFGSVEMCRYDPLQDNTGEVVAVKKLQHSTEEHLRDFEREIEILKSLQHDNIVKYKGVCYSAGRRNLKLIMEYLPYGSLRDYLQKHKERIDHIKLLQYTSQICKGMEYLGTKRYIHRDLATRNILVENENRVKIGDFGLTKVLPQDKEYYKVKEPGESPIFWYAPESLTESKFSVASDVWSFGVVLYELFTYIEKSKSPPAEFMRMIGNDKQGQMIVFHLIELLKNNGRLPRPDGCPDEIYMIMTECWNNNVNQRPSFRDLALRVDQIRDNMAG
pIC50: −log10 of the molar value.
Listed molecules paired with reported pIC50

* O=C(Nc1cc(Nc2cnccn2)nc(-c2ccnc(N3CCNCC3)c2)c1)c1cccnc1 | > 7.00
* O=C(O)c1ccc(C(=O)Nc2cc(Nc3cnccn3)nc(-c3ccnc(N4CCNCC4)c3)c2)cc1 | > 7.00
* O=C(Nc1cc(Nc2cnccn2)nc(-c2ccnc(N3CCNCC3)c2)c1)c1ccc(F)cc1 | > 7.00

## Task May I ask what pIC50 has been recorded for O=C(O)C[C@H](Cc1ccccc1)C(=O)Nc1cc(Nc2cnccn2)nc(-c2ccnc(N3CCNCC3)c2)c1 ?
## Result 6.00 to 7.00

## Task And O=C(O)c1cccc(C(=O)Nc2cc(Nc3cnccn3)nc(-c3ccnc(N4CCNCC4)c3)c2)c1 ?
## Result > 7.00

###

# systemTested: Recombinant human full-length Syk (Homo sapiens, UniProt P43405)
# Construct: Recombinant human full-length Syk was supplied by Millipore; purchased Millipore
# protocolSummary: Syk enzyme assay - radioactive filtration kinase assay
# Format: biochemical
Listed compounds paired with reported IC50
Write the number in nM without appending the unit.

Take a look at these entries with their results.
* Nc1cc(Nc2cnccn2)nc(-c2ccnc(N3CCNCC3)c2)c1 | 4
* FC(F)(F)c1ccnc(Nc2cccc(-c3ccnc(N4CCNCC4)c3)n2)c1 | 1.8

Please turn your attention to the following entry.
## Task May I ask what IC50 has been recorded for O=C(O)c1ccc(C(=O)Nc2cc(Nc3cnccn3)nc(-c3ccnc(N4CCNCC4)c3)c2)cc1 ?
## Result 8

###

# Tested on: LAD2 cells
# protocolSummary: LAD2 cells assay (degranulation, β-hexosaminidase release)
# Type: cell-based
# testParameters: Homo sapiens, 0.5 h; IgE-sensitized LAD2 cells, 30 min with compound, activated with 125 ng/ml streptavidin; released β-hexosaminidase; read-out: LAD2IC50
# strict inequality: IC50 < 200 nM yields Fulfilled, everything else yields Not fulfilled

• Cc1cc(C(=O)Nc2cc(Nc3cnccn3)nc(-c3ccnc(N4CCNCC4)c3)c2)n(C)n1 = Fulfilled

In the following, a different compound is considered.
## Task Lab note: confirm whether the reported IC50 for this compound is below 200 nM, equality not counting. compound: O=C(O)c1ccc(C(=O)Nc2cc(Nc3cnccn3)nc(-c3ccnc(N4CCNCC4)c3)c2)cc1
## Result Fulfilled

###

# systemTested: Recombinant human full-length Syk (Homo sapiens, UniProt P43405)
# Construct: Recombinant human full-length Syk was supplied by Millipore; purchased Millipore
# protocolSummary: Syk enzyme assay - radioactive filtration kinase assay
# Assay type: biochemical
Listed compounds paired with reported IC50
Write the number in nM without appending the unit.

• O=C(Nc1cc(Nc2cnccn2)nc(-c2ccnc(N3CCNCC3)c2)c1)c1cncnc1 = 9
• Cc1ccnc(Nc2cccc(-c3ccnc(N4CCNCC4)c3)n2)c1 = 14
• O=C(Nc1cc(Nc2cnccn2)nc(-c2ccnc(N3CCNCC3)c2)c1)c1cccnc1 = 6
• FC(F)(F)c1ccnc(Nc2cccc(-c3cccc(N4CCNCC4)c3)n2)c1 = 0.56

## Task May I ask what IC50 has been recorded for O=C(Nc1cc(Nc2cnccn2)nc(-c2ccnc(N3CCNCC3)c2)c1)c1ccc(C(=O)O)nc1 ?
## Result 10

## Task And CNc1cc(Nc2cnccn2)nc(-c2ccnc(N3CCNCC3)c2)c1 ?
## Result 4.1

## Task And Cc1cc(C(=O)Nc2cc(Nc3cnccn3)nc(-c3ccnc(N4CCNCC4)c3)c2)n(C)n1 ?
## Result 7

## Task And O=C(Cc1cccnc1)Nc1cc(Nc2cnccn2)nc(-c2ccnc(N3CCNCC3)c2)c1 ?
## Result 4

Every entry's value here was drawn from patent EP2441755A1.
